System: SpTbr T-box DNA-binding domain (GST fusion);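 also: protein at 200 nM in PBS on universal double-stranded arrays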
Sequence: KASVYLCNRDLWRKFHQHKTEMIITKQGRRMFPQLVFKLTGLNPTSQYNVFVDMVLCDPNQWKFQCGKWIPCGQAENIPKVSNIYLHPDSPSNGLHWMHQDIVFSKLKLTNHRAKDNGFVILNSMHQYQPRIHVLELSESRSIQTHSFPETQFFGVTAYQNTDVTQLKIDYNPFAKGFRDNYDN
assay_info: PBM E-score of 8-mer (E-score (dimensionless, -0.5 to 0.5)); Tbr is Tbrain of the sea star Patiria miniata (Pm) or the sea urchin Strongylocentrotus purpuratus (Sp); higher = stronger binding preference
condition: the construct has about 5 more residues each side
Whole data set: some 33,000 sequences, median “E-score (dimensionless, -0.5 to 0.5)” near -0.046, cut for the highest 2% near 0.36. What follows is part of a selection rich in the highest values, with near analogues and random picks from the rest.

seq	PBM E-score of 8-mer
CTTACTCC	-0.125
CCCACGCC	0.163
ATCACGCC	0.403
CTTACGCA	0.0993
AATGCGTG	0.253
